Entries and their z-score values follow.
Target: NADPH oxidase 2 (Homo sapiens)
Test: NOX2-dependent H2O2 signal modulators, primary screen, NOX inhibitor project, cell-based, HEK293-NOX2, PMA-stimulated, Amplex Red fluorescence (AID 1159); also: test concentration not given here
Settings: 45 min, higher = more signal, called active from +8 up or from −8 down
Kindly provide the number alone.

* [N-]=[N+]=Nc1ccccc1[C@H]1OC(c2ccc(OCCCO)cc2)=N[C@@]1(Cc1ccccc1)C(=O)O | -0.0311

QUERY: Recorded z-score of COc1cc2c(cc1OC)CN(C(=O)[C@H]1[C@@H]3C(=O)O[C@@H](c4ccccc4)[C@@H](c4ccccc4)N3[C@@H](c3ccc(O)cc3)[C@]13C(=O)Nc1ccc(C#CCNC(N)=O)cc13)CC2 , please.
RESULT: 0.47

QUERY: Given the compound COCCOC(=O)N1C(=O)[C@@]2(c3cc(C#Cc4ccc(OC)cc4)ccc31)[C@H](c1ccc(O)cc1)N1[C@H](c3ccccc3)[C@H](c3ccccc3)OC(=O)[C@H]1[C@@H]2C(=O)NC[C@H](O)c1ccccc1 , what is its reported z-score?
RESULT: 1.07

QUERY: // query z-score value for entry N#Cc1ccc(NN2C(C(O)c3c(F)cccc3Cl)C=CC3C(=O)N(c4ccccc4)C(=O)C32)cc1 (stereo unspecified)
RESULT: -1.1

QUERY: Any idea what z-score was measured for COc1ccc([Si](C)(C)[C@H]2[C@H](CCO)O[C@@]3(C(=O)N(Cc4ccc(N5C(=O)COc6ccccc65)cc4)c4ccccc43)[C@@H]2C)cc1 ?
RESULT: -0.916

QUERY: # lookup: z-score of CC(=O)NCCCC[C@@H]1NC(=O)[C@@H]2C[C@H](C(=O)NCCCCCCNC(=O)CS)[C@H](c3cccc(OCCO)c3)N2C1=O
RESULT: 1.55

QUERY: Could you tell me which z-score is on file for COC(=O)[C@@]1(Cc2ccc(OC)cc2)[C@H]2c3cc(C(=O)N4CCCC4)n(Cc4ccsc4Br)c3C[C@H]2CN1C(=O)c1ccccc1 ?
RESULT: 0.289
